meta.source: patent US11970463B2

# ASSAY TARGET: Human NLRP3 (Homo sapiens (Human), UniProt Q96P20)
# Sequence (Q96P20 whole entry): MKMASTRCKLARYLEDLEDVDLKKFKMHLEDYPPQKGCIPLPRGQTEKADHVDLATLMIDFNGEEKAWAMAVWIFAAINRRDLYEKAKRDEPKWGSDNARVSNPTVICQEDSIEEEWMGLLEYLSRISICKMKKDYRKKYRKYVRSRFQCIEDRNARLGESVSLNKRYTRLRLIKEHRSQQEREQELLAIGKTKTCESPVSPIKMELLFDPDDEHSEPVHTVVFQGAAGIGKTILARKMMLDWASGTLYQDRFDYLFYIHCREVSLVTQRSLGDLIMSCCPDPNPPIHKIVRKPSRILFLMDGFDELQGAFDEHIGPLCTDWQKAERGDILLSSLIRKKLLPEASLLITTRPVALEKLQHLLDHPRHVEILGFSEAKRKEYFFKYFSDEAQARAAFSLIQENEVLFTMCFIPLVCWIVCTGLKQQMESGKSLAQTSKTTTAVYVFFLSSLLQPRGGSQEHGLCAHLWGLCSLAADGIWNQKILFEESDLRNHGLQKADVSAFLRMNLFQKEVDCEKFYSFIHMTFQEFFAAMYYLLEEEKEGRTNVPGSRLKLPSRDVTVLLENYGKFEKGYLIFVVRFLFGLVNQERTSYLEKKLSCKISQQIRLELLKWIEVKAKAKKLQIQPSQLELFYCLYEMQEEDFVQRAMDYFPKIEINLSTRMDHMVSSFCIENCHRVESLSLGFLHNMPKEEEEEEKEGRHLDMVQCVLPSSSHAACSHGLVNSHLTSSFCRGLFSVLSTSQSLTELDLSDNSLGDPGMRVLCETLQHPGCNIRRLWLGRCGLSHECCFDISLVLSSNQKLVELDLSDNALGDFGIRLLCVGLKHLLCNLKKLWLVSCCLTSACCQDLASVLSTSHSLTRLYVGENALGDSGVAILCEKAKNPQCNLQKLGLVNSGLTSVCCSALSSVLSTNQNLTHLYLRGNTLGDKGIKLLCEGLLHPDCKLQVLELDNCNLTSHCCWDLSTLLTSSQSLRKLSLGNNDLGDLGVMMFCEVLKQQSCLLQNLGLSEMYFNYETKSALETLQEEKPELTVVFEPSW
# CONDITION DETAILS: Test C IC50, IL-1β release, THP-1 cells, LPS 2 μg/mL 24 h, BzATP 1 mM
REPORTED METRIC: log10 of IC50 (log10 of the value in nM)
Hello, just confirming the data are log10 of IC50 with units of nM.

Example compounds with recorded log10 of IC50:
COMPOUND STRUCTURE: Cc1ccc2c(NC[C@H](O)CO)nnc(-c3ccc(C(F)(F)F)cc3O)c2c1
ASSAY TARGET: Human NLRP3 (Homo sapiens (Human), UniProt Q96P20)
REPORTED RESULT: 1.41
//
COMPOUND STRUCTURE: Oc1cc(C(F)(F)F)ccc1-c1nnc(N[C@@H]2CCCC[C@H]2O)c2ccccc12
ASSAY TARGET: Human NLRP3 (Homo sapiens (Human), UniProt Q96P20)
REPORTED RESULT: 0.70
//
COMPOUND STRUCTURE: CC(C)(O)CNc1nnc(-c2ccc(C(F)(F)F)cc2O)c2ccncc12
ASSAY TARGET: Human NLRP3 (Homo sapiens (Human), UniProt Q96P20)
REPORTED RESULT: 1.00
//
COMPOUND STRUCTURE: Oc1cc(C(F)(F)F)c(F)cc1-c1nnc(N[C@@H]2CCC[C@H](O)C2)c2cnccc12
ASSAY TARGET: Human NLRP3 (Homo sapiens (Human), UniProt Q96P20)
REPORTED RESULT: 0.85

Query: Which log10 of IC50 is reported for this compound? "OC[C@@H](O)CNc1nnc(-c2ccc(OC(F)(F)F)cc2O)c2ccccc12"
Result: 1.60

Query: I have this compound here, "Oc1cc(C(F)(F)F)ccc1-c1nnc(N[C@H]2CC[C@H](O)C2)c2ccccc12" , and I need its recorded log10 of IC50.
Result: 1.93

Query: Field request: log10 of IC50 | item: "Oc1cc(C(F)(F)F)cc(F)c1-c1nnc(N[C@@H]2CCC[C@H](O)C2)c2cnccc12"
Result: 0.95

Query: For the compound shown here, "C[C@]1(O)C[C@H](Nc2nnc(-c3ccc(C(F)(F)F)cc3O)c3ccncc23)C1" , give the reported log10 of IC50.
Result: 1.43

Query: Given "Oc1cc(C(F)(F)F)ccc1-c1nnc(N[C@H]2C[C@H](O)C2)c2ccccc12" , state its recorded log10 of IC50.
Result: 1.80
